# protocol: chemical genetic growth profiling, strain panel (AID 1159580);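 also: tested at 20 µM; growth read once vehicle control cultures reached saturation at 30 °C; 1 = growth at the plate median or of vehicle wells; lower values mean less growth of the strain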
# experimental_setup: S. cerevisiae deletion strains, growth OD, locus YCL061C, strain MRC1 (second series), hits give low values
The whole screen tested about 5,500 compounds, of which about 2,000 (36%) were called active. Another 18% or so got no clear call; they are omitted. The list shows a part of the results.
Assign normalized growth to each entry below.
Answers are plain numbers.

> print(dat)
                                    molecule  endpoint.value
 1  NC(=NCCCC(N)C(=O)O)N[N+](=O)[O-] (stereo unspecified)               1
 2    COc1ccc(CCN(C)CCc2ccc(OC)c(OC)c2)cc1OC           0.998
 3  CCn1cnc2c(Nc3cccc(Cl)c3)nc(N[C@@H]3CCCC[C@@H]3N)nc21           0.998
 4  CC1CCN(CC[C@H]2CCCN2S(=O)(=O)c2cccc(O)c2)CC1               1
 5               N[C@@H](Cc1ccc(F)cc1)C(=O)O           0.995
 6      C#CC(N)CCC(=O)O (stereo unspecified)            1.01
 7   CCCC(C(=O)OCCN(CC)CC)(c1ccccc1)c1ccccc1           0.993
 8                           CCCC(CCC)C(=O)O           0.985
 9  O=c1ccn([C@@H]2O[C@H](COP(=O)(O)OP(=O)(O)O)[C@@H](O)[C@H]2O)c(=O)[nH]1           0.991
10          N[C@@H](Cn1oc(=O)[nH]c1=O)C(=O)O           0.991

Hi! Can you tell me normalized growth for each of these molecules?
1. CC12CC3CC(C)(C1)CC(N)(C3)C2
2. CN(C)CC[C@@H](c1ccc(Br)cc1)c1ccccn1
3. NC(N)=NC(=O)Cc1c(Cl)cccc1Cl
4. Cc1nc2sccn2c(=O)c1CCN1CCC(=C(c2ccc(F)cc2)c2ccc(F)cc2)CC1
5. CN1CCN(c2nc3cc(C(F)(F)F)ccc3n3cccc23)CC1

1: 0.994; 2: 0.993; 3: 1; 4: 1; 5: 0.985

Hi! Can you tell me normalized growth for each of these molecules?
1. CCCn1c(=O)c2[nH]c(-c3ccc(OCC(=O)Nc4ccc(C#N)cc4)cc3)nc2n(CCC)c1=O
2. CN1CCN(C2=Nc3ccccc3Oc3ccc(Cl)cc32)CC1
3. CCn1c(=O)c2[nH]c(-c3ccccc3)nc2n(CC)c1=O
4. COc1c2c(nc3ccccc13)OC(C(C)(O)CO)C2 (stereo unspecified)
5. CN1C[C@H](CNC(=O)OCc2ccccc2)C[C@@H]2c3cccc4c3c(cn4C)C[C@H]21
6. CN1CCN(c2ccc3ccccc3n2)CC1

1. 0.998
2. 0.992
3. 0.997
4. 1.01
5. 0.998
6. 0.996

---

# protocol: chemical genetic growth profiling, strain panel (AID 1159580);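 also: tested at 20 µM; growth read once vehicle control cultures reached saturation at 30 °C; 1 = growth at the plate median or of vehicle wells; lower values mean less growth of the strain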
# experimental_setup: S. cerevisiae deletion strains, growth OD, locus YNR030W, strain Alg12
Out of some 5,500 compounds screened, about 2,000 (36%) were called active. Not shown: some 18% with an inconclusive outcome. Rule as the data show it: active = normalized growth mostly below about 0.91 (no sharp cut-off); inconclusive = no clear call, values can overlap the other calls; inactive = mostly above about 0.92. Some of the results follow.
Reply using exactly one outcome from T (active), F (inactive)

Please review the following examples before continuing.
> print(dat)
                              sample.smiles  label.class
1  O=[N+]([O-])c1cccc(-c2csc(Nc3ccccc3Cl)n2)c1            T
2                          NNC(=O)c1ccccc1O            F
3                    O=C(Nc1ccccc1)NC1CCCC1            F
4                         CCc1ccccc1NC(C)=O            F
5        COc1ccc(C=C2C(=O)NC(=S)NC2=O)cc1Br            F
6         COc1ccc(-c2ccc(C=C(C#N)C#N)s2)cc1            F

Any idea what this test logged for N#Cc1cccc(Cn2c(=O)oc3ccccc32)c1 ?
F
